Overview of reported FP signal (polarization) across a group of compounds:
system: RMI core complex (RMI1/RMI2) binding to FANCM MM2 peptide, human; assay: disruptors of RMI1/RMI2 association with MM2 peptide – biochemical, fluorescence polarization, human, primary screen (AID 1159607); conditions: RMI core complex with F-MM2 peptide, at 33 µM, stronger effect = lower value
In all, about 70,000 compounds went through this assay and about 400 (0.57%) were called active. Many of the other results were omitted from the sample, so actives are more common in it than they were.
Please give only the number in your answer, with no unit.

Below: 5 compounds and their reported FP signal (polarization).
CC(=O)NBr	53
CC(=O)NS(=O)(=O)c1ccc(NC(=O)c2cccn(Cc3cccc([N+](=O)[O-])c3)c2=O)cc1	51
c1cncc(OCC2=NCCN2)c1	51
CSC(=NCc1ccccc1Cl)N/C(N)=N/[N+](=O)[O-]	58
CC12CCC3C(CCC4CC(O)CCC43C)C1C/C(=C\c1ccccc1Cl)C2=O (stereo unspecified)	62

Query compound follows.
Q) Look up FP signal (polarization) for this compound: `COc1ccc2c(c1O)-c1cccc3c1[C@@H](C2)N(C)CC3`
A) 57
